Test system: MDA-MB-231
method-notes: Initial screening, SRB assay GI50
Type: cell-based
measurement-setup: Homo sapiens, 48 hrs
measured-parameter: GI50 (µM)

>>> measured("CCn1c2ccccc2c2cc(-n3nnc(C(O)c4cccnc4)c3-c3ccccc3)ccc21 (stereo not shown)")
8
>>> measured("CCn1c2ccccc2c2cc(-n3nnc(C(O)c4ccc([N+](=O)[O-])cc4)c3-c3ccccc3)ccc21 (stereo not shown)")
11.2
>>> measured("CCn1c2ccccc2c2cc(-n3nnc(C(O)c4ccc(C)cc4)c3-c3ccccc3)ccc21 (stereo not shown)")
7.9
>>> measured("CCn1c2ccccc2c2cc(-n3nnc(C(O)c4cccs4)c3-c3ccccc3)ccc21 (stereo not shown)")
20.4

* * *

Test system: MDA-MB-435
method-notes: Cell viability assay (MTT)
Type: cell-based, human
measurement-setup: 0-1000 nM, 72 h
measured-parameter: effect on viability of MDA-MB-435

>>> measured("CCn1c2ccccc2c2cc(-n3nnc(C(=O)NCCCN4CCOCC4)c3-c3ccccc3)ccc21")
"reduced the viability"
>>> measured("CCn1c2ccccc2c2cc(-n3nnc(C(=O)O)c3-c3ccccc3)ccc21")
"reduced the viability"
>>> measured("CCOC(=O)c1nnn(-c2ccc3c(c2)c2ccccc2n3CC)c1-c1ccccc1")
"reduced the viability"
